Values were extracted from patent US5530110A.

Listing of entries alongside the reported logD.
assay_info: Relative partition coefficients between 0.1M phosphate buffer, pH 7.0 and 1-octanol
Type: physicochemical
test_parameters: phosphate buffer / 1-octanol; 0.1M phosphate buffer, pH 7.0 / 1-octanol; read-out: relative partition coefficient (converted)

compound	logD
CCOc1nc(=O)n([C@H]2C[C@H](O)[C@@H](CO)O2)cc1F [4-ethoxyFdU (4b), 4-Ethoxy, 5-fluoro, 2'-deoxyuridine]	-0.108
COc1nc(=O)n([C@H]2C[C@H](O)[C@@H](CO)O2)cc1F [4-methoxyFdU (4a), 4-Methoxy, 5-fluoro, 2'-deoxyuridine]	-0.62
Nc1nc(=O)n([C@H]2C[C@H](O)[C@@H](CO)O2)cc1F [FdC (5), 5-Fluoro, 2'-deoxycytidine]	-1.55

###

assay_info: Hydrolysis of the alkoxy derivatives to FdU in aqueous solution
Type: physicochemical
test_parameters: pH 11, 25°, 1.5×10^-4 M in unbuffered deionized water adjusted with NaOH or HCl; read-out: conversion half life (4→1) (converted)
Listing of entries alongside the reported half-life at 150 µM.

entry_smiles	half-life at 150 µM
COc1nc(=O)n([C@H]2C[C@H](O)[C@@H](CO)O2)cc1F	2.2 h
CCOc1nc(=O)n([C@H]2C[C@H](O)[C@@H](CO)O2)cc1F	12.5 h

###

assay_info: Hydrolysis of the alkoxy derivatives to FdU in aqueous solution
Type: physicochemical
test_parameters: water; pH 11, aqueous solution; read-out: half life for the conversion to FdU (converted)

compound	half-life, h
CCOc1nc(=O)n([C@H]2C[C@H](O)[C@@H](CO)O2)cc1F [4-ethoxyFdU (4b), 4-Ethoxy, 5-fluoro, 2'-deoxyuridine]	12.5

###

Test system: CCRF-CEM cells
assay_info: Cytostatic activity (growth inhibition) of CCRF-CEM cells in culture
Format: cell-based
test_parameters: Homo sapiens, 96 h; CCRF-CEM growth inhibition, four days, triplicate wells; read-out: EC50

compound	tgt	EC50 [nM]
COc1nc(=O)n([C@H]2C[C@H](O)[C@@H](CO)O2)cc1F	CCRF-CEM cells	1800
Nc1nc(=O)n([C@H]2C[C@H](O)[C@@H](CO)O2)cc1F	CCRF-CEM cells	6.9
O=c1[nH]c(=O)n([C@H]2C[C@H](O)[C@@H](CO)O2)cc1F [FdU (1), reference compound]	CCRF-CEM cells	8.9
CCOc1nc(=O)n([C@H]2C[C@H](O)[C@@H](CO)O2)cc1F	CCRF-CEM cells	1800
